- targetSystem: human progesterone receptor B (Homo sapiens, UniProt P06401)
- Sequence (P06401 1-933): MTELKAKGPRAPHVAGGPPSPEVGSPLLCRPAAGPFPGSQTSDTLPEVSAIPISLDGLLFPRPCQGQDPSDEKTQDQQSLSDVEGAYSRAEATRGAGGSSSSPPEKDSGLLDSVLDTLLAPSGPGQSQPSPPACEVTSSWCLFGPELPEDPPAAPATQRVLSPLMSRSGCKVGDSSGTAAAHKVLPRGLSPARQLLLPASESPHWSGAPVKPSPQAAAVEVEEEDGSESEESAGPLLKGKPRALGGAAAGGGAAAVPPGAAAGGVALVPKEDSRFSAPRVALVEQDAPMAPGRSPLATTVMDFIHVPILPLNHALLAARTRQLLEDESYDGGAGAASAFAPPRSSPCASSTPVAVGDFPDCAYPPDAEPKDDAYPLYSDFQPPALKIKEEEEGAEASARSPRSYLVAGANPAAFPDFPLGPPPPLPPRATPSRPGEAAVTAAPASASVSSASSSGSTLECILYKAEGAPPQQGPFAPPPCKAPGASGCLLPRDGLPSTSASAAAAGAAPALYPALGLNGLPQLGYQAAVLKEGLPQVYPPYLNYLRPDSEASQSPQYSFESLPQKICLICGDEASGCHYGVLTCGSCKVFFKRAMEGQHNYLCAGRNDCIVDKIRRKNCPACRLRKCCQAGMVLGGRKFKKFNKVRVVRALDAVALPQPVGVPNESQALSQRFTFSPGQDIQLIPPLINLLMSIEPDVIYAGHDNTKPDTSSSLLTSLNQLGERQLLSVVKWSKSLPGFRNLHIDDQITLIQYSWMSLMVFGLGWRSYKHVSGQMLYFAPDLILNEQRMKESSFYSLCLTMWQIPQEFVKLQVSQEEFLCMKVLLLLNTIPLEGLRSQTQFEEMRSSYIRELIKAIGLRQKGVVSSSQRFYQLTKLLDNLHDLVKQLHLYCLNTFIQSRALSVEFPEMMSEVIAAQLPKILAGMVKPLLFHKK
- experimentSummary: Progesterone receptor transactivation test in stably transfected SK-N-MC cells (PR-B, MMTV-LUC reporter)
- conditionDescription: 0.1 nmol/l promegestone, 24 hours, read-out: PR-B IC50 (antagonistic potency)
Where a name gives a salt, the structure may show the parent alone.
property: pIC50
One number for each entry, as −log10 of the molar value.

# count of solved cases: 2
Cc1nccn1CCC(=O)O[C@@H](C)c1ccc([C@H]2C[C@@]3(C)[C@@H](CC[C@@]3(O)C(F)(F)C(F)(F)F)[C@@H]3CCC4=CC(=O)CCC4=C32)cc1 (single isomer, unassigned) [Example 14A] | 9.54
CC(C)C(=O)OC(C)c1ccc([C@H]2C[C@@]3(C)C(CC[C@@]3(O)C(F)(F)C(F)(F)F)C3CCC4=CC(=O)CCC4=C32)cc1 (mixture of isomers) [Example 2] | 10.00

Hi, could you look up pIC50 for each item in my list?
1. CC(OC(=O)CCc1nccs1)c1ccc([C@H]2C[C@@]3(C)C(CC[C@@]3(O)C(F)(F)C(F)(F)F)C3CCC4=CC(=O)CCC4=C32)cc1 (mixture of isomers) [Example 15]
2. CC(OC(=O)[C@@H]1CCCN1)c1ccc([C@H]2C[C@@]3(C)C(CC[C@@]3(O)C(F)(F)C(F)(F)F)C3CCC4=CC(=O)CCC4=C32)cc1 (mixture of isomers) [Example 13, hydrochloride]
3. CC(OC(=O)CC(C)(C)C)c1ccc([C@H]2C[C@@]3(C)C(CC[C@@]3(O)C(F)(F)C(F)(F)F)C3CCC4=CC(=O)CCC4=C32)cc1 (mixture of isomers) [Example 4]

Result:
10.00
9.13
9.40
